- target-desc: MSI1 full-length (mouse, UniProt Q61474 1-362)
- Sequence (Q61474 whole entry): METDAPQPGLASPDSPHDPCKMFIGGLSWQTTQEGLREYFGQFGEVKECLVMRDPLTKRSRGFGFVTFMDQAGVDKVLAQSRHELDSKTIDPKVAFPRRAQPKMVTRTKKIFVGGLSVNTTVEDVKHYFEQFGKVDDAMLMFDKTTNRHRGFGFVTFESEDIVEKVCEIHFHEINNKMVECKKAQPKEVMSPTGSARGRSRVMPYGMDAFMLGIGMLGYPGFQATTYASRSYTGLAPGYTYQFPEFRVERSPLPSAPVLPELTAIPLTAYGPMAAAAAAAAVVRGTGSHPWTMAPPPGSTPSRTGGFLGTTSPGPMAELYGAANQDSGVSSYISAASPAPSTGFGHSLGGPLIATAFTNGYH
- measurement-protocol: nsRBNS (natural sequence RNA bind-n-seq); RBNS binding buffer (assumed for nsRBNS): 25 mM Tris pH 7.5, 150 mM KCl, 3 mM MgCl2, 0.01% Triton X-100, 500 ug/ml BSA, 20 U/ml SUPERase-In, 4 C; UNK is unkempt and MSI1 is Musashi-1; names of the RNAs are library labels; protein concentration not given here; high values mean tight binding
Over roughly 5,800 sequences, “enrichment r” has its median near 0.54; the highest 2% begin near 16. For the sample, the highest values were picked, then their nearest neighbours and some sequences at random.
observed-property: binding signal (enrichment R)
Numbers only, in enrichment R.

Examples with answers:
chr19:14119889:14120036:-|3pUTR|ENSG00000105011|msi1|FALSE|unique (ssRNA) RNA: GGGAGUUCUACAGUCCGACGAUCAGCAGACCCACUCCAGCUUUCUGGUGUCACAGGCGGGAAUGUUAGUUAGUAGGUAGACUUAGAUCCCAUUUCUGUCCUGCUCCCAGGAAGAUUCUUAGGUCCUCUUCAAUCCAGCAGCCCCAACAGAGGAUUGAGCAUCA ... 38.2
chr12:100625254:100625355:+|3pUTR|ENSG00000139354|unk|total|mutant (ssRNA) RNA: GGGAGUUCUACAGUCCGACGAUCAUAUGUAUUAAAUAUGGAGUUCAUAUACCUGCUAAUAUCAACGGUGGUGCUCUUACUAUCCGUUAAUUGCAUUUUGGUUAAAAAAAAAAAAGCAACAGUUUGGCACUUGUCCUACAAAAGCAACAGAGGAUUGAGCAUCA ... 0.371

**Q:** // returns reported binding signal for input chr17:18209558:18209659:+|3pUTR|ENSG00000091542|msi1|FALSE|unique (ssRNA) RNA: GGGAGUUCUACAGUCCGACGAUCGGUAGCUUCUAUCCACUCAGAUCCUGGAAGGCAGCAAGGUUUUGUGGAUCUAGAUUCAUUAGGAAUGUCUUCUUGUCAGCCAGGCCAGGACCCGGGCUUGCCAAGAGCAGAGGCCCUCCCCAACAGAGGAUUGAGCAUCA
**A:** 1.93

Taken from paper PMC12136788.
